All values here come from patent US11427548B2.

- system name: Androgen Receptor (Homo sapiens, UniProt P10275)
- Construct: endogenous in cells; host or cells: VCaP cells
- Sequence (P10275 1-920): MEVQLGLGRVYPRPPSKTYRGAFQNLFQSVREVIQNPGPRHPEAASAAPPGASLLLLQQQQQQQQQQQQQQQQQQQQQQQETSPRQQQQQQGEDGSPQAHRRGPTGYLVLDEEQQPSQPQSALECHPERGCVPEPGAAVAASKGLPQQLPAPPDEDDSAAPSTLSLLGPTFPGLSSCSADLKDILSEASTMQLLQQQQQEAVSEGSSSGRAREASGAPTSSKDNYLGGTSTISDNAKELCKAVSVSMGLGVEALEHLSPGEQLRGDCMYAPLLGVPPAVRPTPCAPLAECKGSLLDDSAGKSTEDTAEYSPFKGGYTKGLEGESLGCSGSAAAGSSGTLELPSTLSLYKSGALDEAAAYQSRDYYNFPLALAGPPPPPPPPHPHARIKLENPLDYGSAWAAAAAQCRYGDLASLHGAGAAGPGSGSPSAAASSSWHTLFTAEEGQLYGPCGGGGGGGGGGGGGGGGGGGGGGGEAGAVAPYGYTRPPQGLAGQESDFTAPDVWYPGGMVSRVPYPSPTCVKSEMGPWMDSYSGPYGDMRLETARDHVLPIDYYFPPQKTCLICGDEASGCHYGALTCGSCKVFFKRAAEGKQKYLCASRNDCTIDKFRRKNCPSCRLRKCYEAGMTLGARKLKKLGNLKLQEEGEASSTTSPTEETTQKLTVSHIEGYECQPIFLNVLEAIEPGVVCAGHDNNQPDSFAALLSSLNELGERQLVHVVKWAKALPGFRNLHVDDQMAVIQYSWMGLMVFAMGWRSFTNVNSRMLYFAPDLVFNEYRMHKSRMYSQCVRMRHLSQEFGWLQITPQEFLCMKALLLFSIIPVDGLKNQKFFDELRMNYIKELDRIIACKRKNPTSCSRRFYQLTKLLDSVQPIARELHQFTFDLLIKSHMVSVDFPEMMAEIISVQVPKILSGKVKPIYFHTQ
- procedure summary: Androgen Receptor ELISA assay (PathScan AR ELISA) in VCaP cells: AR degradation, Dmax and DC50
- Type: cell-based
- condition label: VCaP cells; Table 35; read-out: VCaP DC50
DC50 by entry:

smiles entry	DC50
CC(C)(C)[C@H](NC(=O)COCCCCCNc1ccc(C(=O)N[C@H]2C(C)(C)[C@H](Oc3ccc(C#N)c(Cl)c3)C2(C)C)cc1)C(=O)N1C[C@H](O)C[C@H]1C(=O)NCc1ccc(-c2scnc2C(=O)O)cc1	51 to 500 nM
CC(C)(C)[C@H](NC(=O)COCCCCCNc1ccc(C(=O)N[C@H]2C(C)(C)[C@H](Oc3ccc(C#N)c(Cl)c3)C2(C)C)cc1)C(=O)N1C[C@H](O)C[C@H]1C(=O)NCc1ccc(-c2ccncn2)cc1	< 50 nM
CC(C)(C)[C@H](NC(=O)CNCCNc1ccc(-c2ccc(C(=O)N[C@H]3C(C)(C)[C@H](Oc4ccc(C#N)c(Cl)c4)C3(C)C)cc2)cn1)C(=O)N1C[C@H](O)C[C@H]1C(=O)NCc1ccc(C#N)cc1	< 50 nM
Cc1ncsc1-c1ccc([C@@H](CN)NC(=O)[C@@H]2C[C@@H](O)CN2C(=O)[C@@H](NC(=O)COCCCCCOc2ccc(C(=O)N[C@H]3C(C)(C)[C@H](Oc4ccc(C#N)c(Cl)c4)C3(C)C)cc2)C(C)(C)C)cc1	< 50 nM
Cc1ncsc1-c1ccc(CNC(=O)[C@@H]2C[C@@H](O)CN2C(=O)[C@@H](NC(=O)COCCNc2ccc(-c3c(F)cc(C(=O)N[C@H]4C(C)(C)[C@H](Oc5ccc(C#N)c(Cl)c5)C4(C)C)cc3F)cn2)C(C)(C)C)cc1	< 50 nM
CC(C)(C)[C@H](NC(=O)COCCCCCNc1ccc(C(=O)N[C@H]2C(C)(C)[C@H](Oc3ccc(C#N)c(Cl)c3)C2(C)C)cc1)C(=O)N1C[C@H](O)C[C@H]1C(=O)NCc1ccc(C#N)nc1	< 50 nM
